- target_of_assay: Cyclin-dependent kinase 4/cyclin D1 (Homo sapiens, UniProt P11802)
- Sequence (P11802 whole entry): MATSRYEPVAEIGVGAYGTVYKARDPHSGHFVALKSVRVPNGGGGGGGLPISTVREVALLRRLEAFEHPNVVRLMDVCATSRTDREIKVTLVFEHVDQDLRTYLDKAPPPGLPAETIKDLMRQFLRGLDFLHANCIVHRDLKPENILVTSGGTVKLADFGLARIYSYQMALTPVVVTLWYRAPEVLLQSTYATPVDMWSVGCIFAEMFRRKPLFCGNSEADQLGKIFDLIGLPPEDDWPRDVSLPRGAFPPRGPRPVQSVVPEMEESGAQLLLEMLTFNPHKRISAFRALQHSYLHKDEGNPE
- Sequence (P24385 whole entry, further chain): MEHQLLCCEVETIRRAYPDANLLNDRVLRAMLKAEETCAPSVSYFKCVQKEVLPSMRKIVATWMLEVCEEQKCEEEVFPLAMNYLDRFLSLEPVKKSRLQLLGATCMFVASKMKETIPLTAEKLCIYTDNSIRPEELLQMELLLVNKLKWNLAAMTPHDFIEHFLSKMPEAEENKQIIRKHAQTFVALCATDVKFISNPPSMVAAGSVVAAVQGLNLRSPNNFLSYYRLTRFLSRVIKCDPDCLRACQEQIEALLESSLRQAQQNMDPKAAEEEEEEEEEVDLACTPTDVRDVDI
- measurement_description: In vitro inhibitory activity against human cyclin dependent kinase (CDK4/D1)
Measured IC50, listed per entry.

Solved entries (count: 3):
Prompt line: Using known records, supply IC50 for `COc1ccccc1-c1ccc2nc(C(F)(F)F)nc(NC(C)(C)C)c2c1`
Response line: > 2.7 µM

Prompt line: Supply reported IC50 belonging to this compound: `COc1cccc(-c2ccc3nc(C(F)(F)F)nc(NC(C)(C)C)c3c2)c1`
Response line: > 6.7 µM

Prompt line: Return IC50 (reported value) for this compound: `Fc1cccc(CNc2nc(C(F)(F)F)nc3ccccc23)c1`
Response line: > 39 µM

As a next step, examine the compound that follows.
Prompt line: Return value of IC50 for input `CC(C)(C)Nc1nc(-c2ccccc2)nc2ccccc12` , no commentary.
Response line: > 361 µM

----------
- target_of_assay: Cyclin-dependent kinase 2/cyclin E (Homo sapiens, UniProt P24941)
- measurement_description: In vitro inhibitory activity against human cyclin dependent kinase (CDK2/E)
pIC50: −log10 of the molar value.
readout_label: pIC50

Record excerpt, results attached:
Prompt line: # return pIC50 for `CC(C)(C)Nc1nc(C(F)(F)F)nc2ccc(-c3ccco3)cc12` , test system: Cyclin-dependent kinase 2/cyclin E (Homo sapiens, UniProt P24941)
Response line: 5.92

Prompt line: Give pIC50 for this entry on Cyclin-dependent kinase 2/cyclin E (Homo sapiens, UniProt P24941): `COc1ccc(-c2ccc3nc(C(F)(F)F)nc(NC(C)(C)C)c3c2)cc1`
Response line: 5.00

Prompt line: Quote Cyclin-dependent kinase 2/cyclin E (Homo sapiens, UniProt P24941) pIC50 for entry CCCC(C)Nc1nc(C(F)(F)F)nc2ccccc12 (configuration not stated) .
Response line: 3.61

Prompt line: Provide pIC50, system Cyclin-dependent kinase 2/cyclin E (Homo sapiens, UniProt P24941), entry CC(Nc1nc(C(F)(F)F)nc2ccccc12)c1ccccc1 (configuration not stated)
Response line: 5.17

P. CC(C)(C)Nc1nc(C(F)(F)C(F)(F)F)nc2ccccc12
Q. OC1CCCN(c2nc(C(F)(F)F)nc3ccccc23)C1 (configuration not stated)
Prompt line: Which of the two gives a bigger number for pIC50: P or Q ? Give the chosen item's label as your response.
Response line: P

----------
This listing pairs compounds with measured IC50.
- target_of_assay: Cyclin-dependent kinase 4/cyclin D1 (Homo sapiens, UniProt P11802)
- measurement_description: In vitro inhibitory activity against human cyclin dependent kinase (CDK4/D1)

Prompt line: Give the reported IC50 for this compound. OC1CCCN(c2nc(C(F)(F)F)nc3ccccc23)C1 (stereo not drawn)
Response line: > 84 µM

Prompt line: Identify the reported IC50 for the following entry. `CC(C)S(=O)(=O)Nc1nc(C(F)(F)F)nc2ccccc12`
Response line: > 157 µM

Moving on to the next compound.
Prompt line: Provide IC50 value for the following compound: `CC(C)(C)Nc1nc(C(F)(F)F)nc2ccc(-c3ccco3)cc12`
Response line: > 3 µM

----------
Listed below: IC50 values for each entry.
- target_of_assay: Cyclin-dependent kinase 4/cyclin D1 (Homo sapiens)
- measurement_description: In vitro inhibitory activity against human cyclin dependent kinase (CDK4/D1)

Would you please look over these solved cases?
Prompt line: State, in one line, measured IC50 of `COc1ccc(-c2ccc3nc(C(F)(F)F)nc(NC(C)(C)C)c3c2)cc1`
Response line: > 27 µM

Prompt line: Report IC50 for `CC(C)(C)Nc1nc(C(F)(F)F)nc2ccc(-c3cccc(N)c3)cc12`
Response line: > 2.1 µM

Prompt line: Please indicate IC50 recorded for `CC(C)(C)Nc1nc(C(F)(F)F)nc2ccc(-c3ccc(N)cc3)cc12`
Response line: > 1.1 µM

Prompt line: Consider the compound `CC(C)(C)Nc1nc(C(F)(F)F)nc2ccc(-c3ccc(-c4cccnc4)cc3)cc12` . State its measured IC50.
Response line: 8.3 µM

Prompt line: Give IC50 for `C#CC(C)(C)Nc1nc(C(Cl)(Cl)Cl)nc2ccccc12`
Response line: 24 µM

Continuing:
Prompt line: Tell me its IC50 given OCC1CCCN1c1nc(C(F)(F)F)nc2ccccc12 (configuration not stated) as the entry.
Response line: 63 µM

Prompt line: Write down IC50 measured for item `CCOC(=O)c1nc(NC(C)(C)C)c2ccccc2n1`
Response line: 168 µM

Just for reference, ChEMBL document CHEMBL1134251 is where these values come from.
